Where do the numbers come from? From patent EP2064211B1.

target: HDAC1 enzyme (Homo sapiens, UniProt Q13547); construct: Amplification of human HDAC1 coding region from this cDNA library was cloned separately into the baculovirus expression pDEST20 vector; experiment: In vitro HDAC assay for determination of IC50 values (BIOMOL fluorescent-based HDAC activity assay); details: recombinant GST-HDAC1, 500 uM Flur de lys substrate, room temperature 2 h; read-out: IC50 (HDAC 1)
Sequence (Q13547 whole entry): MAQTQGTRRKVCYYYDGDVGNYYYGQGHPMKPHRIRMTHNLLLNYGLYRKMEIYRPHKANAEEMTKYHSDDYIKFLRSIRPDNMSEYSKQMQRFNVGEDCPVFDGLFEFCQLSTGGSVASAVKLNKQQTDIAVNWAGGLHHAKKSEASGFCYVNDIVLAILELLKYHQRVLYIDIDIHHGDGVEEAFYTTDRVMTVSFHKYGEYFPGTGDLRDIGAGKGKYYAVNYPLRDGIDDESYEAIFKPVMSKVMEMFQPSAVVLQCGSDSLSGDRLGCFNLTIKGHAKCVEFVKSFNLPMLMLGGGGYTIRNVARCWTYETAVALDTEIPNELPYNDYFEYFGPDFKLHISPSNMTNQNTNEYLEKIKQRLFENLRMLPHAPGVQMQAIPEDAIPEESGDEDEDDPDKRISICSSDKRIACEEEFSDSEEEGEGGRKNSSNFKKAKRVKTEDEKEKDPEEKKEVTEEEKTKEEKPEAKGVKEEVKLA
For each record, write down the corresponding pIC50.
Bear in mind: pIC50 is minus log10 of a mol/L concentration; give just that figure.

Give the reported value of pIC50 for this record: "CCCCc1nc2cc(C=CC(=O)NO)ccn2c1CN(CC)CC(C)C"
7.05

Give the reported value of pIC50 for this record: "CCCCCc1nc2cc(C=CC(=O)NO)ccn2c1CN(CC)CCC(C)C"
7.52

Give the reported value of pIC50 for this record: "CCCCCN(CC)Cc1c(C(C)(C)C)nc2cc(C=CC(=O)NO)ccn12"
6.89

Give the reported value of pIC50 for this record: "CCN(CCC(C)C)Cc1c(CCC(C)C)nc2cc(/C=C/C(=O)NO)ccn12"
7.52

Give the reported value of pIC50 for this record: "CCN(CCC(C)(C)C)Cc1c(CC(C)C)nc2cc(/C=C/C(=O)NO)ccn12"
7.52

Give the reported value of pIC50 for this record: "CCCCc1nc2cc(C=CC(=O)NO)ccn2c1CN(C)CCCC"
7.15

Give the reported value of pIC50 for this record: "CCCN(Cc1c(C)nc2cc(C=CC(=O)NO)ccn12)CC(C)(C)C"
6.89

Give the reported value of pIC50 for this record: "CCN(CCC(C)(C)C)Cc1c(CCC(C)C)nc2cc(C=CC(=O)NO)ccn12"
7.40

Give the reported value of pIC50 for this record: "CCCCCc1nc2cc(C=CC(=O)NO)ccn2c1CNC(C)(C)C"
7.70

====

Biological target: HDAC1 enzyme (Homo sapiens)
Construct: Amplification of human HDAC1 coding region from this cDNA library was cloned separately into the baculovirus expression pDEST20 vector
Assay: In vitro HDAC assay for determination of IC50 values (BIOMOL fluorescent-based HDAC activity assay)
Settings: recombinant GST-HDAC1, 500 uM Flur de lys substrate, room temperature 2 h; read-out: IC50 (HDAC 1)
Method: Human cDNA library was prepared using cultured SW620 cells. Amplification of human HDAC1 coding region from this cDNA library was cloned separately into the baculovirus expression pDEST20 vector (GATEWAY Cloning Technology, Invitrogen Pte Ltd). The pDEST20-HDAC1 construct was confirmed by DNA sequencing. Recombinant baculovirus was prepared using the Bac-To-Bac method following the manufacturer's instruction (Invitrogen Pte Ltd). […]
For each record, write down the corresponding pIC50.
Bear in mind: pIC50 is minus log10 of a mol/L concentration; give just that figure.

Give the reported value of pIC50 for this record: "CCN(Cc1c(C)nc2cc(C=CC(=O)NO)ccn12)CC(C)(C)C"
7.30

Give the reported value of pIC50 for this record: "CCCCCCCN(CC)Cc1c(C(C)(C)C)nc2cc(/C=C/C(=O)NO)ccn12"
6.27

Give the reported value of pIC50 for this record: "CC(C)Cc1nc2cc(C=CC(=O)NO)ccn2c1CNC(C)(C)C"
7.30

Give the reported value of pIC50 for this record: "CCCc1nc2cc(C=CC(=O)NO)ccn2c1CN(CC)CCC(C)C"
7.52

Give the reported value of pIC50 for this record: "CC(C)CCc1nc2cc(C=CC(=O)NO)ccn2c1CNC(C)(C)C"
7.70

Give the reported value of pIC50 for this record: "CCCCNCc1c(CCCC)nc2cc(C=CC(=O)NO)ccn12"
7.70

Give the reported value of pIC50 for this record: "CCC(CC)CN(C)Cc1c(C(C)(C)C)nc2cc(C=CC(=O)NO)ccn12"
6.39

Give the reported value of pIC50 for this record: CCCCc1nc2cc(C=CC(=O)NO)ccn2c1CN(CC)CC(C)CCC (stereo not drawn)
7.10

Give the reported value of pIC50 for this record: "CCN(CC)Cc1c(C(C)(C)C)nc2cc(C=CC(=O)NO)ccn12"
5.92
